# Test system: Plasmodium falciparum
# method: In vitro inhibitory concentration against Plasmodium falciparum W2 Indochina
# Format: functional, organism-based
IC50 values by entry
Numbers only; they are read as ng/mL.

COC(=O)CC[C@@H](O[C@@H]1O[C@@H]2O[C@@]3(C)CC[C@H]4[C@H](C)CCC([C@H]1C)[C@@]24OO3)c1ccc(Cl)cc1 (stereo partly specified) | 0.629
COC(=O)CC[C@@H](O[C@H]1O[C@@H]2O[C@@]3(C)CC[C@H]4[C@H](C)CCC([C@H]1C)[C@@]24OO3)c1ccc(Cl)cc1 (stereo partly specified) | 0.656
COC(=O)CCC(O[C@@H]1O[C@@H]2OC3(C)CC[C@H]4[C@H](C)CCC([C@H]1C)C24OO3)c1ccc(F)cc1 (stereo partly specified) | 0.398

Asked: Given C[C@@H]1CC[C@H]2[C@@H](C)C(=O)O[C@@H]3O[C@@]4(C)CC[C@@H]1[C@]32OO4 [ARTEMISININ] , state its recorded IC50.
Given back: 2.14

Asked: Given COc1ccc(C(CCC(=O)O)O[C@@H]2O[C@@H]3OC4(C)CC[C@H]5[C@H](C)CCC([C@H]2C)C35OO4)cc1 (stereo partly specified) , state its recorded IC50.
Given back: 3.45

Asked: Given COC(=O)CCC(O[C@@H]1O[C@@H]2OC3(C)CC[C@H]4[C@H](C)CCC([C@H]1C)C24OO3)c1ccc(Br)cc1 (stereo partly specified) , state its recorded IC50.
Given back: 0.543

====

# Tested on: Plasmodium falciparum
# method: In vitro inhibitory concentration against Plasmodium falciparum W2 Indochina
# Type: functional, organism-based
IC50 less than 0.5 ng/mL is 1; IC50 greater than or equal to 0.5 ng/mL is 0.

Here's what some known entries look like.
COC(=O)CCC(O[C@H]1O[C@@H]2OC3(C)CC[C@H]4[C@H](C)CCC([C@H]1C)C24OO3)c1ccc(Br)cc1 (stereo partly specified) | 0
C[C@@H]1CCC2[C@@H](C)[C@@H](OC(CCC(=O)O)c3ccc(F)cc3)O[C@@H]3OC4(C)CC[C@@H]1C23OO4 (stereo partly specified) | 0
C[C@@H]1CCC2[C@@H](C)[C@H](OC(CCC(=O)O)c3ccc(F)cc3)O[C@@H]3OC4(C)CC[C@@H]1C23OO4 (stereo partly specified) | 0

Asked: Please indicate whether the reported IC50 of C[C@@H]1CCC2[C@@H](C)[C@H](OC(CCC(=O)O)c3ccc(Br)cc3)O[C@@H]3OC4(C)CC[C@@H]1C23OO4 (stereo partly specified) is strictly below 0.5 ng/mL.
Given back: 1

Asked: Please indicate whether the reported IC50 of C[C@@H]1CCC2[C@@H](C)[C@@H](OC(CCC(=O)O)c3ccc(Br)cc3)O[C@@H]3OC4(C)CC[C@@H]1C23OO4 (stereo partly specified) is strictly below 0.5 ng/mL.
Given back: 1

====

# Tested on: Plasmodium falciparum
# method: In vitro inhibitory concentration against Plasmodium falciparum W2 Indochina
# Format: functional, organism-based
testReadout: IC50 (ng/mL)
Numbers only; they are read as ng/mL.

Worked examples, 3 molecules total:
COC(=O)CCC(O[C@@H]1O[C@@H]2OC3(C)CC[C@H]4[C@H](C)CCC([C@H]1C)C24OO3)c1ccc(OC)cc1 (some centres undefined) | 0.647
COC(=O)CCC(O[C@H]1O[C@@H]2OC3(C)CC[C@H]4[C@H](C)CCC([C@H]1C)C24OO3)c1ccc(Cl)cc1 (some centres undefined) | 0.794
C[C@@H]1CCC2[C@@H](C)[C@H](OC(CCC(=O)O)c3ccc(Cl)cc3)O[C@@H]3OC4(C)CC[C@@H]1C23OO4 (some centres undefined) | 0.357

Continue with the next molecule.
Asked: Given C[C@@H]1CCC2[C@@H](C)[C@@H](OC(CCC(=O)O)c3ccc(Cl)cc3)O[C@@H]3OC4(C)CC[C@@H]1C23OO4 (some centres undefined) , state its recorded IC50.
Given back: 1.26

====

# Species: Mus musculus
# method: Dose that causes 50% suppression of Plasmodium berghei parasitaemia in the treated mice (Mus musculus) compared to untreated controls.
# Format: functional
testReadout: SD50 (mg/kg)
Numbers only; they are read as mg/kg.

Worked examples, 4 compounds total:
C[C@@H]1CCC2[C@@H](C)[C@H](OC(CCC(=O)O)c3ccc(Br)cc3)O[C@@H]3OC4(C)CC[C@@H]1C23OO4 (stereo not given in full) | 16.26
COc1ccc(C(CCC(=O)O)O[C@@H]2O[C@@H]3OC4(C)CC[C@H]5[C@H](C)CCC([C@H]2C)C35OO4)cc1 (stereo not given in full) | 25.06
C[C@@H]1CCC2[C@@H](C)[C@H](OC(CCC(=O)O)c3ccc(Cl)cc3)O[C@@H]3OC4(C)CC[C@@H]1C23OO4 (stereo not given in full) | 14.39
C[C@H]1C(Oc2ccc(C(=O)[O-])cc2)O[C@@H]2O[C@]3(C)CC[C@H]4[C@H](C)CCC1C24OO3.[Na+] (stereo not given in full) | 56

Continue with the next compound.
Asked: Given C[C@@H]1CCC2[C@@H](C)[C@H](OC(CCC(=O)O)c3ccc(F)cc3)O[C@@H]3OC4(C)CC[C@@H]1C23OO4 (stereo not given in full) , state its recorded SD50.
Given back: 28.16

Hello, the source for this data is ChEMBL document CHEMBL1130006, in case you need it.
